measured-on: UniProt P28335
Sequence (P28335 33-458): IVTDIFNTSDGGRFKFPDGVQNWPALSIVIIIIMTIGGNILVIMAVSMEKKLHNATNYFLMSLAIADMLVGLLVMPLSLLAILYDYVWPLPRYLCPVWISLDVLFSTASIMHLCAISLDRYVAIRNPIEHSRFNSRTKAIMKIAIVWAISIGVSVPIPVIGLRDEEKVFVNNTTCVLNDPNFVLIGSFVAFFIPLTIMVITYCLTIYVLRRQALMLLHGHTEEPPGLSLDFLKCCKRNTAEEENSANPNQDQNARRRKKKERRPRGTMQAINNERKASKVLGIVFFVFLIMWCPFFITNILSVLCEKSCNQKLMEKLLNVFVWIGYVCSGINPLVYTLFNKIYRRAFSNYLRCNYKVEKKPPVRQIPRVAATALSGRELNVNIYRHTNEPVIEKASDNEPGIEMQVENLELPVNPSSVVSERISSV
Label yes (1) when IC50 is strictly below 1000 nM; otherwise label no (0).

Prompt: IC50 strictly < 1000 nM for this compound? CN1CCC(N(C)Cc2cnn(-c3ccc(-c4ccc(F)cc4)cc3)c2-c2ccco2)C1 (centres unmarked) [Example 529]
Completion: yes (1)

Next:
Prompt: IC50 strictly < 1000 nM for this compound? OC1CCN(Cc2cnn(-c3ccc(-c4ccc5c(c4)OCCO5)cc3)c2-c2ccco2)C1 (centres unmarked)
Completion: yes (1)

Prompt: IC50 strictly < 1000 nM for this compound? Cc1ccoc1-c1c(CN2CCN(C)CC2)cnn1-c1ccc(-c2ccc(F)cc2)cc1
Completion: yes (1)

Prompt: IC50 strictly < 1000 nM for this compound? Fc1ccc(-c2ccc(-n3ncc(CN4CCN(C5CCCC5)CC4)c3-c3ccco3)cc2)cc1
Completion: no (0)

Prompt: IC50 strictly < 1000 nM for this compound? OC1CCN(Cc2cnn(-c3ccc(-c4cccc(F)c4)cc3)c2-c2ccco2)C1 (centres unmarked)
Completion: yes (1)

###

measured-on: 5 HT2C receptor (Homo sapiens)
Sequence (P28335 33-458): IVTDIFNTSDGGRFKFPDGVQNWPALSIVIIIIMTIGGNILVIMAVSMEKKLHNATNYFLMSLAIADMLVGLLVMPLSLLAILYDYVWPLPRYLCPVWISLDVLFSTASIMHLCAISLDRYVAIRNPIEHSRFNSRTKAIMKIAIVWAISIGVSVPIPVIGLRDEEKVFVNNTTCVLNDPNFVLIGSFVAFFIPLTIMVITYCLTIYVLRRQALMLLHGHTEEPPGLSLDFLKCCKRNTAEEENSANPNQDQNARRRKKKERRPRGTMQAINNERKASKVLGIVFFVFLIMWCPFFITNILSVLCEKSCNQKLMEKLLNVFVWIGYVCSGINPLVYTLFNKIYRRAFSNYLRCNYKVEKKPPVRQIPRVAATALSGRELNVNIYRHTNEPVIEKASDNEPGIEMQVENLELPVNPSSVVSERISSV
endpoint-label: pIC50
Please note pIC50 is a logarithmic value: minus log10 of concentration in mol/L. Answer with that number alone.

Prompt: Please indicate pIC50 recorded for CCN1CCN(Cc2cnn(-c3ccc(-c4ccc5c(c4)OCCO5)cc3)c2-c2ccco2)CC1 [Example 557]
Completion: 6.46

Prompt: Please indicate pIC50 recorded for CN1CCN(Cc2cnn(-c3ccc(-c4cc(F)c(OC(F)(F)F)c(F)c4)cc3)c2-c2ccccc2F)CC1 [Example 623]
Completion: 6.74

Prompt: Please indicate pIC50 recorded for c1coc(-c2c(CN3CCNCC3)cnn2-c2ccc(-c3ccc4c(c3)OCCO4)cc2)c1 [Example 595]
Completion: 6.82

Next compound, pIC50 to be filled in.
Prompt: Please indicate pIC50 recorded for CCN(CC)Cc1cnn(-c2ccc(-c3ccc(OC)cc3)cc2)c1-c1ccco1 [Example 601]
Completion: 6.00
